assay.overview: In vivo biodistribution and clearance in CD-1 mice
test.conditions: male, CD-1, mouse, intestine, intravenous, 40 pmol/g
assay.metric: tissue uptake at 4 h (%ID/g)
Give the quantity in %ID/g, number only.

Exercise: Look up and report measured tissue uptake at 4 h for this entry: "CC1(C)C(/C=C/C=C/C=C/C=C2\N(CCCCS(=O)(=O)O)c3ccc4ccccc4c3C2(C)C)=[N+](CCCCS(=O)(=O)[O-])c2ccc3ccccc3c21"
Key: 62

----------
assay.overview: In vivo biodistribution and clearance in CD-1 mice
test.conditions: male, CD-1, mouse, blood, iv, 40 pmol/g
assay.metric: half-life (min)
Give the number; min is assumed, so skip it.

Exercise: Indicate the recorded half-life value for this molecule: CC1(C)C(/C=C/C=C/C=C/C=C2\N(CCCCS(=O)(=O)O)c3ccc4ccccc4c3C2(C)C)=[N+](CCCCS(=O)(=O)[O-])c2ccc3ccccc3c21 [ICG, indocyanine green]
Key: 3.6
